Each recorded value in this set is attributed to paper PMC10397247.

Target: T1, 4H3782-AA
T1 chain: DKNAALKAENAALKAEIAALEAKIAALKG
Test: two-hybrid library CCmax;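 note: natural log of median RNA to DNA barcode read ratio; higher means stronger binding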
Conditions: mean of both orientations
READOUT LABEL: interaction score

# annotated cases, reported interaction score shown
BINDER	OBSERVED VALUE
DENAALEAKNAALEAKIAALKAKIAALKG [4H1454-AA]	0.615
DKIAALKAKIAALKAENAALEAKNAALEG [4H2903-AA]	-1.31

[A] DEIAALEAKIAALKAENAALEAKIAALEG [4H341-AA]
[B] DKIAALKAENAALKAENAALEAKIAALKG [4H2774-AA]
Endpoint returns whichever of A and B has the numerically higher interaction score. Identify your selection by its label.
A
